Hey, just so you know, these numbers are from patent US20210002231A1.

Target: UniProt:Q9GZQ6
Sequence (Q9GZQ6 whole entry): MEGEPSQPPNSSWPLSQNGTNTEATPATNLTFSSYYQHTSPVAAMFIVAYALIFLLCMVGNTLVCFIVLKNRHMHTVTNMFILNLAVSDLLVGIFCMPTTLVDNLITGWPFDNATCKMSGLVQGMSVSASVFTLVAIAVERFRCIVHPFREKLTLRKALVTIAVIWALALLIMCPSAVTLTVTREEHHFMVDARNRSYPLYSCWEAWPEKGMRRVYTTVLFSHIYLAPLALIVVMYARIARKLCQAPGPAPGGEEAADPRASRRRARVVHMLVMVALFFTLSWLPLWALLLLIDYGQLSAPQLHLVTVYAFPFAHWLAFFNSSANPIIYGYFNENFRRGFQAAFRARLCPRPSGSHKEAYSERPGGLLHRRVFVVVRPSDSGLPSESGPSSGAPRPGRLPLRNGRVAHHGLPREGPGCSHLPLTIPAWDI
Assay: [35S]-GTPγS binding assay
Assay type: biochemical
Parameters: expressed in transfected cells
Conditions: relative to RFRP3
Description: Stimulation by endogenous RF-amide peptides or test compounds for [^35S]-GTPγS binding to membranes from CHO cells expressing human NPFF1R or NPFF2R, were examined as reported. 1.6. […] The cAMP responses were measured in presence of D-luciferin (1 mM).
Starred links: 1 amine or outer side, 2 acyl side, 3 side chain; linkers in the order of their positions; H or OH if unused. Non-standard residues stand in square brackets, D forms with d. Residues, ends and D or L forms follow the SMILES beside them. *: point of attachment. X1 = O=C1[C@@H](N[*:1])Cc2ccccc2CN1CCC(=O)[*:2]; Dmt = Cc1cc(O)cc(C)c1C[C@H](N)C(=O)O; X2 = c1ccc2[nH]c(*)nc2c1; X3 = c1ccc2oc(*)nc2c1
Consider the following compounds; for each one, report its Emax.
Quick reminder: number only, in %, skip the unit.

## Task # lookup: Emax of Cc1cc(O)cc(C)c1C[C@H](N)C(=O)N[C@H](CCCNC(=N)N)C(=O)N[C@H]1Cc2ccccc2CN(CCC(=O)N[C@@H](CCCNC(=N)N)C(=O)N[C@@H](Cc2ccccc2)C(N)=O)C1=O [KGFF03, H-Dmt-D-Arg-Aba-β-Ala-Arg-Phe-NH2] (HELM PEPTIDE1{[Cc1cc(O)cc(C)c1C[C@H](N)C(=O)[*:2]].[dR].[O=C1[C@@H](N[*:1])Cc2ccccc2CN1CCC(=O)[*:2]].R.F.[am]}$$$$V2.0)
## Result 88

## Task # lookup: Emax of CNC(=O)[C@H](Cc1ccccc1)NC(=O)[C@@H](CCCNC(=N)N)NC(=O)[C@@H](N)Cc1c(C)cc(O)cc1C [KGFF13, H-Dmt-D-Arg-Phe-NHMe] (HELM PEPTIDE1{[Cc1cc(O)cc(C)c1C[C@H](N)C(=O)[*:2]].[dR].F.[CN[*:1]]}$$$$V2.0)
## Result 39

## Task # lookup: Emax of Cc1cc(O)cc(C)c1C[C@H](N)C(=O)N[C@H](CCCNC(=N)N)C(=O)N[C@@H](Cc1ccccc1)C(N)=O [KGFF07, H-Dmt-D-Arg-Phe-NH2] (HELM PEPTIDE1{[Cc1cc(O)cc(C)c1C[C@H](N)C(=O)[*:2]].[dR].F.[am]}$$$$V2.0)
## Result 84

## Task # lookup: Emax of Cc1cc(O)cc(C)c1C[C@H](N)C(=O)N[C@H](CCCNC(=N)N)C(=O)N[C@H]1Cc2ccccc2CN(CCC(=O)N[C@@H](CCCN2CCCCC2)C(=O)N[C@@H](Cc2ccccc2)C(N)=O)C1=O
## Result 23

## Task # lookup: Emax of Cc1cc(O)cc(C)c1C[C@H](N)C(=O)N[C@H](CCCNC(=N)N)C(=O)N[C@H]1Cc2ccccc2CN(CCC(=O)N[C@@H](CCCCNc2nc3ccccc3o2)C(=O)N[C@@H](Cc2ccccc2)C(N)=O)C1=O [KGFF15, H-Dmt-D-Arg-Aba-β-Ala-Lys(Box)-Phe-NH2] (H-[Dmt][dR][X1]K(X3)F-NH2)
## Result 51

## Task # lookup: Emax of Cc1cc(O)cc(C)c1C[C@H](N)C(=O)N[C@H](CCCNC(=N)N)C(=O)N[C@H]1Cc2ccccc2CN(CCC(=O)N[C@@H](CCCCNc2nc3ccccc3[nH]2)C(=O)N[C@@H](Cc2ccccc2)C(N)=O)C1=O [KGFF14, H-Dmt-D-Arg-Aba-β-Ala-Lys(Bim)-Phe-NH2] (H-[Dmt][dR][X1]K(X2)F-NH2)
## Result 74

## Task # lookup: Emax of Cc1cc(O)cc(C)c1C[C@H](N)C(=O)N[C@H](CCCNC(=N)N)C(=O)N[C@H]1Cc2ccccc2CN(CCC(=O)N[C@@H](CCCN2CCC(Cc3ccccc3)CC2)C(=O)N[C@@H](Cc2ccccc2)C(N)=O)C1=O
## Result 10
